The reported measurements were obtained from patent US20180057462A1.

Listing: chromatographic logP of selected compounds
protocol.description: LogP by HPLC on reversed phase columns (EEC directive 79/831 Annex V.A8), method [a]
Type: physicochemical
run.parameters: reversed phase HPLC column; LC-UV, acidic range, 0.1% formic acid in water and acetonitrile as eluent (linear gradient 10% to 95% acetonitrile)
experimental.readout: chromatographic logP

- CCCC(C)Oc1cccc(NC(=O)c2cccnc2C(F)F)c1C (centres unmarked) [Example 79]: 3.48
- Cc1c(NC(=O)c2cccnc2C(F)F)cccc1-c1cncc(C(F)(F)F)c1 [Example 110]: 2.6

* * *

Below, each of the compounds is paired with its reported LogP[a] value.
protocol.description: LogP by HPLC on reversed phase columns (EEC directive 79/831 Annex V.A8), method [a]
Format: physicochemical
run.parameters: LC-UV, acidic range, 0.1% formic acid in water and acetonitrile as eluent (linear gradient 10% to 95% acetonitrile)
experimental.readout: LogP[a]

• CCC(C)Oc1cccc(NC(=O)c2cccnc2C(F)F)c1C(F)(F)F (stereo not shown) [Example 94] = 3.17
• Cc1c(NC(=O)c2cccnc2C(F)F)cccc1OC(C)CC(C)(C)C (stereo not shown) [Example 84] = 4.21
• Cc1c(CCC(C)(C)C)cccc1NC(=O)c1cccnc1C(F)F [Example 74] = 3.92
• CO/N=C\C(C)Oc1cccc(NC(=O)c2cccnc2C(F)F)c1C (stereo not shown) [Example 28] = 2.49
• Cc1c(NC(=O)c2cccnc2C(F)F)cccc1OC(C)CSc1ccccc1 (stereo not shown) [Example 70] = 3.65
• Cc1c(NC(=O)c2cccnc2C(F)F)cccc1OC(C)Cc1cccc(Cl)c1 (stereo not shown) [Example 68] = 3.85
• Cc1c(NC(=O)c2cccnc2C(F)F)cccc1OCc1cccs1 [Example 71] = 2.82
• Cc1c(NC(=O)c2cccnc2C(F)F)cccc1OC(C)CC(C)C (stereo not shown) [Example 15] = 3.79
• Cc1ccccc1OCC(C)Oc1cccc(NC(=O)c2cccnc2C(F)F)c1C (stereo not shown) [Example 32] = 3.74
• CC(Oc1cccc(NC(=O)c2cccnc2C(F)F)c1C(F)(F)F)c1ccccc1 (stereo not shown) [Example 101] = 3.42
• Cc1c(NC(=O)c2cccnc2C(F)F)cccc1OC(C)c1ccc(Cl)cc1 (stereo not shown) [Example 47] = 3.65
• Cc1c(NC(=O)c2cccnc2C(F)F)cccc1OCC(F)(F)F [Example 119] = 2.55
• CCCC(CC)Oc1cccc(NC(=O)c2cccnc2C(F)F)c1C (stereo not shown) [Example 83] = 3.94
• Cc1c(NC(=O)c2cccnc2C(F)F)cccc1N(C)C [Example 108] = 0.45
• Cc1c(NC(=O)c2cccnc2C(F)F)cccc1OC(C)Cc1ccccc1Cl (stereo not shown) [Example 69] = 3.90
• CCO/N=C\C(C)Oc1cccc(NC(=O)c2cccnc2C(F)F)c1C (stereo not shown) [Example 29] = 2.82
• Cc1c(NC(=O)c2cccnc2C(F)F)cccc1OCCC1CC1 [Example 26] = 3.17
• Cc1c(NC(=O)c2cccnc2C(F)F)cccc1OCc1ccc(F)cc1 [Example 36] = 3.06
• CCC(CC)Nc1cccc(NC(=O)c2cccnc2C(F)F)c1C [Example 106] = 2.86
